# Test target: PCSK9 (UniProt Q8NBP7 31-692, limits assumed)
# Sequence (Q8NBP7 31-692 limits assumed): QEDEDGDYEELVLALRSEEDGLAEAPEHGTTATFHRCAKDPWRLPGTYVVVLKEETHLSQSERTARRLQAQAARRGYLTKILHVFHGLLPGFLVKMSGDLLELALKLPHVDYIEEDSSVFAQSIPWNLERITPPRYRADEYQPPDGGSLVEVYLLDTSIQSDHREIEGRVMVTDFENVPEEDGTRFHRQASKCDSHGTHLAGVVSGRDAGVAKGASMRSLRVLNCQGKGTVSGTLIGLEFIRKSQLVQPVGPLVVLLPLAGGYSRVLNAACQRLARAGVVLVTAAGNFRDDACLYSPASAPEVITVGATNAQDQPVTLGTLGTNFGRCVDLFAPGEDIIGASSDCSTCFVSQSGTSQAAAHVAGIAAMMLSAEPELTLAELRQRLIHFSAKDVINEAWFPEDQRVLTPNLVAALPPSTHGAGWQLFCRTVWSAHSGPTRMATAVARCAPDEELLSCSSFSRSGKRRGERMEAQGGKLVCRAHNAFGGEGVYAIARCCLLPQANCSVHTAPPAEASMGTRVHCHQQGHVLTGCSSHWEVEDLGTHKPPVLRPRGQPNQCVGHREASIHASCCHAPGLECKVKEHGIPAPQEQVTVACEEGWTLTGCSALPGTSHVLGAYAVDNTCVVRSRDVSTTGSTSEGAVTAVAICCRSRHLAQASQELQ
# Test protocol: cell-based or functional assay
Result type: EC50 value of bioactivity testing (BODIPY-LDL uptake in HepG2 cells, RFU) (nM)
Report the value in nM with no unit label.

Sample records with EC50 value of bioactivity testing (BODIPY-LDL uptake in HepG2 cells, RFU):
Binder	Result value
DFSK9-21 complete antibody (antibody, V domains shown, also called DF5K9-21) VH: QVQLVQSGAEVKKPGASVKVSCKASGYSLTSYGISWVRQAPGQGLEWMGWVSFYNGQTNYAQKLQGRGTMTTDPSTSTAYMELRSLRSDDTAVYYCARGFGMDRWGQGTTVTVSS VL: DIQMTQSPSSLSASVGDRVTITCRASQNINNWLNWYQQKPGKAPKLLIYGASTRPTGVPSRFSGSGSGTDFTLTISSLQPEDFATYYCQQWDDTPNTFGQGTKVEIK	20.3
DFSK9-17 complete antibody (antibody, V domains shown) VH: QVQLVQSGAEVKKPGASVKVSCKASGYTVTSYGISWVRQAPGQGLEWMGWVSFYNGNSNYAQKLQGRGTMTTDPSTSTAYMELRSLRSDDTAVYYCARGYSLDVWGQGTTVTVSS VL: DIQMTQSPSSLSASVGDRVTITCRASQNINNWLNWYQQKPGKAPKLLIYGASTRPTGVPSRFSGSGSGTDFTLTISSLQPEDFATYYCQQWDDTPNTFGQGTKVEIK	18.5
DFSK9-20 complete antibody (antibody, V domains shown) VH: QVQLVQSGAEVKKPGASVKVSCKASGYSLTSYGISWVRQAPGQGLEWMGWVSFYNGNSNYAQKLQGRGTMTTDPSTSTAYMELRSLRSDDTAVYYCARGFGMDRWGQGTTVTVSS VL: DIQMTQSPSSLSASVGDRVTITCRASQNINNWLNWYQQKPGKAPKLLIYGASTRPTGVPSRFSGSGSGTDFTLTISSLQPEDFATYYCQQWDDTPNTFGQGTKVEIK	17.9
DFSK9-14 complete antibody (antibody, V domains shown) VH: QVQLVQSGAEVKKPGASVKVSCKASGYSLTSYGISWVRQAPGQGLEWMGWVSFYNGQTNYAQKLQGRGTMTTDPSTSTAYMELRSLRSDDTAVYYCARGYGMSIWGQGTTVTVSS VL: DIQMTQSPSSLSASVGDRVTITCRASQNINSWLNWYQQKPGKAPKLLIYGASSRQSGVPSRFSGSGSGTDFTLTISSLQPEDFATYYCQQWFDVPTTFGQGTKVEIK	16.6

From here, focus on the item given below.
Query: Retrieve EC50 value of bioactivity testing (BODIPY-LDL uptake in HepG2 cells, RFU) measured for DFSK9-15 complete antibody (antibody, V domains shown) VH: QVQLVQSGAEVKKPGASVKVSCKASGYTVTSYGISWVRQAPGQGLEWMGWVSFYNGQTNYAQKLQGRGTMTTDPSTSTAYMELRSLRSDDTAVYYCARGYSLDVWGQGTTVTVSS VL: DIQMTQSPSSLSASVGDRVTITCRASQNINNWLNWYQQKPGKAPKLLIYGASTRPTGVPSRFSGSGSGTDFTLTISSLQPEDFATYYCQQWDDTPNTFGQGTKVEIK and print it.
Reply: 15.3
